In this section, each of the binders is paired with its reported Proportion of chimeric antibody positive cells to B cells (%) at 10 nM.
subject of test: T1, cynomolgus monkey CD19 on peripheral blood B cells (cynomolgus monkey (Macaca fascicularis), UniProt A0A2K5W8L9 20-557)
T1 construct: whole, on cells; also called cynomolgus monkey B cells
T1 sequence: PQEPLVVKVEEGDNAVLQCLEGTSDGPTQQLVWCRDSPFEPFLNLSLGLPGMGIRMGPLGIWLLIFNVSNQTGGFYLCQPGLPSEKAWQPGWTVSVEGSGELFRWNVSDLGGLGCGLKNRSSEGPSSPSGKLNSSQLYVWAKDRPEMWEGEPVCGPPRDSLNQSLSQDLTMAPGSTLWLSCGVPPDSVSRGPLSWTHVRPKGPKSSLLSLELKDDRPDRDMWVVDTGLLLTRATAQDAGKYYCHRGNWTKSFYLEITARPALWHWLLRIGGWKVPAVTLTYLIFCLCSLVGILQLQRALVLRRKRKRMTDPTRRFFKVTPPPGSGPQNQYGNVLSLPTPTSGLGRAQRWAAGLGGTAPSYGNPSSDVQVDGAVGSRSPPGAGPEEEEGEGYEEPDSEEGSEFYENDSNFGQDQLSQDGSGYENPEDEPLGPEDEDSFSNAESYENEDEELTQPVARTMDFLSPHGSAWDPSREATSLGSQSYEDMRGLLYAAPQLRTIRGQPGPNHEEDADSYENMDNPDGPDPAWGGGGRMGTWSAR
experiment notes: FACS, cynomolgus PBMC, CD20+ B cells
Method: The monkey peripheral blood mononuclear cells were extracted from fresh cynomolgus monkey peripheral blood (purchased from Shanghai Medicilon Inc.) according to the instructions of Ficoll-Paque Plus (purchased from GE Healthcae, catalog number: 171440-02). After the cell suspension was centrifuged, the cells were resuspended in PBS containing 1% BSA, and then the cells were counted. […] The mixture was incubated for 1 h at room temperature. […]
Provide the reading as a plain figure in %.

binder="F3.3.10 (antibody, human IgG1, V domains shown, human-murine chimeric antibody, human IgG1) VH: DVQLQESGPGLAKLSQSLSLTCSVTGYSITSGYYWNWIRQFPGNKLEWMGHISYDGNNNYNPSLKNRISITRDTSKNQFFLKLNSVTTEDTATYYCARENYSNYYFDYWGQGTTLTVSS VL: DIVLTQSPASLAVSLGQRATISCRASQSVSKSSYTYIHWYQQKPGQPPKLLIKYASILQSGVPARFSGSGSGTDFTLNFHPVEEEDTATYYCQHSWEIPYTFGGGTKLEIK" observed_value=91

// recorded Proportion of chimeric antibody positive cells to B cells (%) at 10 nM for F1-mab003 (antibody, human IgG1, V domains shown, human-murine chimeric antibody, human IgG1) VH: EVQLQQSGPELVKPGASVKMSCKASGYTFTDYVMHWVRQTPGQGLEWIGYFNPYNDGTNYNEKFKVKATLTSDKSSTTAYMELSSLTSEDSAVYYCARGVYYYGRDFDYWGQGTTLTVSS VL: DVVLTQTPLSLPVSLGDQASISCRSSQSLENSNGNSYLNWYLQKPGQSPQLLIYRVSNRFSGVLDRFSGSGSGTDFTLKISRVEAEDLGVYFCLQITHVPWTFGGGTKLEIK : 32

The binder listed as F3.121.4 (antibody, human IgG1, V domains shown, human-murine chimeric antibody, human IgG1) VH: QVQLQQPGAELVVPGTSVKLSCKASGYTFTNYWMHWVKQRPGQGLEWIGEIDPSDNYANYNQEFQGKATLTVDKSSSTAYMQLSSLTSDDSAVYYCARHDGYFGALDYWGQGTSVTVSS VL: EIVLTQSPTTMAASPGEKITITCSASSSISSNYLHWYQQKPGFSPKFLIYRTSNLASGVPARFSGSGSGTSYSLTIGTMEAEDVATYYCQQASSIPRMFTFGSGTKLEIK shows Proportion of chimeric antibody positive cells to B cells (%) at 10 nM equal to 2
